Field: Tm. Provide a value for each of the substances that follow.
- experimentalSystem: Envelope glycoprotein gp160 (Human immunodeficiency virus type 1 group M subtype B (isolate HXB2)(HIV-1)) (UniProt P04578)
- experimentSummary: Binding affinity to HIV-1 HXB2 gp41 N-terminal heptad repeat assessed as thermostability of compound at 10 uM after 30 mins by CD spectroscopic analysis
- conditionSet: Human immunodeficiency virus 1
# output: bare number, implied unit °C

Entry "H-TTWEEWDKKIEEYTKKIEELIKKS-OH" needs its Tm filled in; supply it.
66.3

Return Tm for the following substance: "H-TTWEEWDKKIEEYTKKIEELI-OH"
66.2

Read the entry "H-MTWEEWDKKIEEYTKKIEELI-OH" and write its reported Tm.
76.2

Please report Tm for the following substance: "H-MTWEEWDKKIEEYTKKIEELIKKS-OH"
78.2

====

- System: Human immunodeficiency virus 1
- experimentSummary: Antiviral activity against ENF-resistant HIV1 NL4-3 harboring gp41 N-terminal heptad repeat V38A/N42T double mutant infected in human TZM-bl cells assessed as inhibition of viral entry into cells after 48 hrs by single-cycle infection assay
- Type: functional, organism-based
readoutType: pIC50
Please express pIC50 as -log10 of the molar concentration.

Identify the reported pIC50 for the following entry. "H-WEAWDRAIAEYAARIEALIRAAQEQQEKNEAALREL-OH"
9.22

====

- experimentalSystem: Envelope glycoprotein gp160 (Human immunodeficiency virus type 1 group M subtype B (isolate HXB2)(HIV-1), UniProt P04578)
- experimentSummary: Binding affinity to HIV-1 HXB2 gp41 N-terminal heptad repeat assessed as inhibition of 6-helix bundle formation after 30 mins by ELISA
- Parameters: species or system Human immunodeficiency virus 1
readoutType: IC50 (nM)
Enter your answer as a number in nM; do not include the unit.

Supply reported IC50 belonging to this substance: "H-WEAWDRAIAEYAARIEALIRAAQEQQEKNEAALREL-OH"
77.4

====

- Tested on: Human immunodeficiency virus 1
- experimentSummary: Antiviral activity against HIV-1 SF162 pseudovirus infected in human TZM-bl cells assessed as inhibition of viral entry into cells after 48 hrs by single-cycle infection assay
- Assay type: functional, organism-based
- conditionSet: Human immunodeficiency virus 1, SF162, TZM-bl
For each record, write down the corresponding IC50.
Number in nM, nothing else.

Identify measured IC50 associated with "H-MTWEAWDRAIAEYAARIEALIRAAQEQQEKNEAALREL-OH"
4.98

Return the recorded IC50 value; entry: "H-WEAWDRAIAEYAARIEALIRAAQEQQEKNEAALREL-OH"
5.75

====

- Tested on: Human immunodeficiency virus 1
- experimentSummary: Antiviral activity against ENF-resistant HIV1 NL4-3 harboring gp41 N-terminal heptad repeat I37T mutant infected in human TZM-bl cells assessed as inhibition of viral entry into cells after 48 hrs by single-cycle infection assay
- Format: functional, organism-based
readoutType: pIC50
Notebook: values listed as pIC50 are -log10 of the concentration (mol/L).

// Input: "H-WEAWDRAIAEYAARIEALIRAAQEQQEKNEAALREL-OH" . Output its pIC50 only.
8.70

====

Kindly supply the reported pIC50 values for the records listed here.
- Test system: Human immunodeficiency virus 1
- experimentSummary: Antiviral activity against HIV1 NL4-3 pseudovirus infected in human TZM-bl cells assessed as inhibition of viral entry into cells after 48 hrs by single-cycle infection assay
- Type: functional, organism-based
- conditionSet: Human immunodeficiency virus 1, NL4-3, TZM-bl
pIC50 is defined as minus the log10 of a concentration measured in mol/L.

// Input: "H-TTWEEWDKKIEEYTKKIEELIKKS-OH" . Output its pIC50 only.
7.33

Identify pIC50 associated with the substance "H-MTWEEWDKKIEEYTKKIEELI-OH"
8.37

Annotate the substance "H-WEAWDRAIAEYAARIEALIRAAQEQQEKNEAALREL-OH" with its measured pIC50.
8.97

Return reported pIC50. Input substance: "H-TTWEEWDKKIEEYTKKIEELI-OH"
7.72

Provide measured pIC50 value, entry: "H-MTWEEWDKKIEEYTKKIEELIKKS-OH"
8.89

Report pIC50 for "H-TTWEAWDRAIAEYAARIEALIR-OH"
6.02

Fill in reported pIC50 for this entry: "H-MTWEAWDRAIAEYAARIEALIR-OH"
7.06

Give a short answer stating reported pIC50 for "H-MTWEAWDRAIAEYAARIEALIRAAQEQQEKNEAALREL-OH" .
9.34
